Reported EC50 values follow for various compounds
systemUnderTest: CXCR7 (Homo sapiens, UniProt P25106)
Construct: host or cells: CHO (PathHunter CHO-CXCR7 β-arrestin cells)
Sequence (P25106 whole entry): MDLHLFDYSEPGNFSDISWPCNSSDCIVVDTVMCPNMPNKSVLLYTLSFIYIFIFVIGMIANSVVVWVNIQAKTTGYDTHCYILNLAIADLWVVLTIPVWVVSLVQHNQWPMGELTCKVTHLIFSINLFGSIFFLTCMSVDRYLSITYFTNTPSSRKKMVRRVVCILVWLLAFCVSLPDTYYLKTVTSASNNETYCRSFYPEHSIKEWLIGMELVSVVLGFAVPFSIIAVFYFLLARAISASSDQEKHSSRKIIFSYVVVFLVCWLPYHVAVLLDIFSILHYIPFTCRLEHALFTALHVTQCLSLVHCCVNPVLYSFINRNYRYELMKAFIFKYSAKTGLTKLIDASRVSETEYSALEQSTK
measurementDescription: CXCR7 β-arrestin recruitment assay (PathHunter CHO-CXCR7, DiscoverX), agonistic assay
Assay type: cell-based
conditionParameters: agonistic assay; CHO CXCR7 β-arrestin cells; 90 min at 37° C.; chemiluminescence; read-out: β-Arrestin EC50
Non-standard residues stand in square brackets, D forms with d. Residues, ends and D or L forms follow the SMILES beside them. *: point of attachment. dPro(cis-4-NH2) = N[C@H]1CN[C@@H](C(=O)O)C1; 1Nal = N[C@@H](Cc1cccc2ccccc12)C(=O)O; Tic = O=C(O)[C@@H]1Cc2ccccc2CN1; 2Pyrimidinyl = c1cnc(*)nc1; Orn = NCCC[C@H](N)C(=O)O
// note: answer is a bare numeric in µM

>>> observedresult("N=C(N)NCCC[C@@H]1NC(=O)[C@H](Cc2c[nH]c3ccccc23)NC(=O)[C@@H](Cc2ccccc2)NC(=O)[C@H](CCCNc2ncccn2)NC(=O)[C@@H]2Cc3ccccc3CN2C(=O)[C@H]2C[C@@H](N)CN2C1=O [Ex. 76] (cyclo([Orn](2Pyrimidinyl)[dF]WR[dPro(cis-4-NH2)][Tic]))")
0.209
>>> observedresult("CC[C@H](C)[C@@H]1NC(=O)[C@H](CO)NC(=O)[C@H]2CCCN2C(=O)[C@H](Cc2c[nH]c3ccccc23)NC(=O)[C@H](CCCNC(=N)N)NC(=O)[C@@H](CCCNC(=N)N)NC1=O [Ex. 22, cyclo(-Ile-^DArg-Arg-Trp-^DPro-Ser-)] (cyclo(I[dR]RW[dP]S))")
0.0128
>>> observedresult("C[C@@H](O)[C@@H]1NC(=O)[C@H]2CCCN2C(=O)[C@H](Cc2c[nH]c3ccccc23)NC(=O)[C@H](CCCNC(=N)N)NC(=O)[C@@H](CCCNC(=N)N)NC(=O)[C@H](Cc2cccc3ccccc23)NC1=O [Ex. 10, cyclo(-1Nal-^DArg-Arg-Trp-^DPro-Thr-)] (cyclo([1Nal][dR]RW[dP]T))")
0.0285

// CC[C@H](C)[C@@H]1NC(=O)[C@H]([C@@H](C)O)NC(=O)[C@H]2CCCN2C(=O)[C@H](Cc2c[nH]c3ccccc23)NC(=O)[C@H](CCCN)NC(=O)[C@@H](CCCNC(=N)N)NC1=O [compound 65, cyclo(-Ile-^DArg-Orn-Trp-^DPro-Thr-)] (cyclo(I[dR][Orn]W[dP]T)) : EC50 value = 0.816

----------
Reported EC50 values follow for various compounds
systemUnderTest: CXCR7 (Homo sapiens)
Construct: host or cells: CHO (PathHunter CHO-CXCR7 β-arrestin cells)
measurementDescription: CXCR7 β-arrestin recruitment assay (PathHunter CHO-CXCR7, DiscoverX), agonistic assay
Format: cell-based
conditionParameters: agonistic assay; CHO CXCR7 β-arrestin cells; 90 min at 37° C.; chemiluminescence; read-out: β-Arrestin EC50
Non-standard residues stand in square brackets, D forms with d. Residues, ends and D or L forms follow the SMILES beside them. *: point of attachment. cisHyp = O=C(O)[C@@H]1C[C@H](O)CN1; dHyp = O=C(O)[C@H]1C[C@H](O)CN1; Bn = c1ccc(C*)cc1
// note: answer is a bare numeric in nM

>>> observedresult("N=C(N)NCCC[C@@H]1NC(=O)[C@H](Cc2c[nH]c3ccccc23)NC(=O)[C@@H](Cc2ccccc2)NC(=O)[C@H](Cc2c[nH]c3ccccc23)NC(=O)[C@@H]2C[C@H](OCc3ccccc3)CN2C(=O)[C@H]2C[C@H](O)CN2C1=O [compound 49] (cyclo(R[dHyp][cisHyp](Bn)W[dF]W))")
7.6

// CC(C)[C@@H]1NC(=O)[C@H]([C@@H](C)O)NC(=O)[C@H]2CCCN2C(=O)[C@H](Cc2c[nH]c3ccccc23)NC(=O)[C@H](CCCNC(=N)N)NC(=O)[C@@H](CCCNC(=N)N)NC1=O [compound 57, cyclo(-Val-^DArg-Arg-Trp-^DPro-Thr-)] (cyclo(RW[dP]TV[dR])) : EC50 value = 271

----------
systemUnderTest: CXCR7 (Homo sapiens, UniProt P25106)
Construct: host or cells: CHO (PathHunter CHO-CXCR7 β-arrestin cells)
measurementDescription: CXCR7 β-arrestin recruitment assay (PathHunter CHO-CXCR7, DiscoverX), agonistic assay
Type: cell-based
conditionParameters: agonistic assay; CHO CXCR7 β-arrestin cells; 90 min at 37° C.; chemiluminescence; read-out: β-Arrestin EC50
Protocol: Lyophilized peptides were weighed on a Microbalance (Mettler MX5) and dissolved in DMSO to a final concentration of 10 mM unless otherwise stated. Stock solutions were kept at +4° C., and protected from light. 2.2 CXCR7 β-Arrestin Recruitment Assay The PathHunter CHO-CXCR7 (DiscoverX) assay was performed according to the manufacturer's protocol. […]
Starred links: 1 amine or outer side, 2 acyl side, 3 side chain; linkers in the order of their positions; H or OH if unused. Non-standard residues stand in square brackets, D forms with d. Residues, ends and D or L forms follow the SMILES beside them. Arg(Nω,Nω'-propylene) = N[C@@H](CCCNC1=NCCCN1)C(=O)O; dPro(cis-4-NH2) = N[C@H]1CN[C@@H](C(=O)O)C1; X4 = Cn1ccnc1CNCCC[C@H](N[*:1])C(=O)[*:2]; dPro(3S-OH) = O=C(O)[C@@H]1NCC[C@@H]1O; Tiq1c(1S) = O=C(O)[C@H]1NCCc2ccccc21; Tic = O=C(O)[C@@H]1Cc2ccccc2CN1
observationType: EC50 (nM)

>>> observedresult("Cn1ccnc1CNCCC[C@@H]1NC(=O)[C@H](Cc2c[nH]c3ccccc23)NC(=O)[C@@H](Cc2ccccc2)NC(=O)[C@H](Cc2c[nH]c3ccccc23)NC(=O)[C@@H]2Cc3ccccc3CN2C(=O)[C@H]2C[C@@H](N)CN2C1=O [compound 78] (cyclo([Tic]W[dF]W[X4][dPro(cis-4-NH2)]))")
145
>>> observedresult("N[C@@H]1C[C@@H]2C(=O)N3CCc4ccccc4[C@H]3C(=O)N[C@@H](Cc3c[nH]c4ccccc34)C(=O)N[C@H](Cc3ccccc3)C(=O)N[C@@H](Cc3c[nH]c4ccccc34)C(=O)N[C@@H](CCCNC3=NCCCN3)C(=O)N2C1 [compound 79] (cyclo(W[dF]W[Arg(Nω,Nω'-propylene)][dPro(cis-4-NH2)][Tiq1c(1S)]))")
46.9
>>> observedresult("CC[C@H](C)[C@@H]1NC(=O)[C@H]([C@@H](C)O)NC(=O)[C@H]2CCCN2C(=O)[C@H](CCCNC(=N)N)NC(=O)[C@H](Cc2c[nH]c3ccccc23)NC(=O)[C@@H](CCCNC(=N)N)NC1=O [Ex. 17, cyclo(-Ile-^DArg-Trp-Arg-^DPro-Thr-)] (cyclo(I[dR]WR[dP]T))")
62.5

[I] C[C@@H]1NC(=O)[C@@H]2Cc3ccccc3CN2C(=O)[C@H]2C[C@@H](N)CN2C(=O)[C@H](CCCNC(=N)N)NC(=O)[C@H](Cc2c[nH]c3ccccc23)NC(=O)[C@@H](Cc2ccccc2)NC1=O [compound 27] (cyclo(A[dF]WR[dPro(cis-4-NH2)][Tic]))
[II] CC[C@H](C)[C@@H]1NC(=O)[C@H]([C@@H](C)O)NC(=O)[C@H]2[C@@H](O)CCN2C(=O)[C@H](Cc2c[nH]c3ccccc23)NC(=O)[C@H](CCCNC(=N)N)NC(=O)[C@@H](CCCNC(=N)N)NC1=O [Ex. 55] (cyclo(I[dR]RW[dPro(3S-OH)]T))
Given I and given II , which shows the smaller recorded EC50? Please reply using the label of the selected record.
I

----------
systemUnderTest: CXCR7 (Homo sapiens)
Construct: host or cells: CHO (PathHunter CHO-CXCR7 β-arrestin cells)
measurementDescription: CXCR7 β-arrestin recruitment assay (PathHunter CHO-CXCR7, DiscoverX), agonistic assay
Type: cell-based
conditionParameters: agonistic assay; CHO CXCR7 β-arrestin cells; 90 min at 37° C.; chemiluminescence; read-out: β-Arrestin EC50
Starred links: 1 amine or outer side, 2 acyl side, 3 side chain; linkers in the order of their positions; H or OH if unused. Non-standard residues stand in square brackets, D forms with d. Residues, ends and D or L forms follow the SMILES beside them. dPro(cis-4-NH2) = N[C@H]1CN[C@@H](C(=O)O)C1; X4 = Cn1ccnc1CNCCC[C@H](N[*:1])C(=O)[*:2]; Pro(4R-NH2) = N[C@H]1CN[C@H](C(=O)O)C1; Tic = O=C(O)[C@@H]1Cc2ccccc2CN1; dDab = NCC[C@@H](N)C(=O)O
observationType: EC50 (nM)

Worked set:
>>> observedresult("CC[C@H](C)[C@@H]1NC(=O)[C@H]([C@@H](C)O)NC(=O)[C@H]2CCCN2C(=O)[C@H](Cc2c[nH]c3ccccc23)NC(=O)[C@H](CCCNC(=N)N)NC(=O)[C@@H](CCN)NC1=O [Ex. 5, cyclo(-Ile-^DDab-Arg-Trp-^DPro-Thr-)] (cyclo(I[dDab]RW[dP]T))")
48.4
>>> observedresult("N[C@@H]1C[C@@H]2C(=O)N3Cc4ccccc4C[C@H]3C(=O)N[C@@H](Cc3c[nH]c4ccccc34)C(=O)N[C@H](Cc3ccccc3)C(=O)N[C@@H](Cc3c[nH]c4ccccc34)C(=O)N[C@@H](Cc3c[nH]cn3)C(=O)N2C1 [compound 32] (cyclo(H[dPro(cis-4-NH2)][Tic]W[dF]W))")
20.4

[1] N=C(N)NCCC[C@@H]1NC(=O)[C@H](Cc2c[nH]c3ccccc23)NC(=O)[C@@H](Cc2ccccc2)NC(=O)[C@H](Cc2c[nH]c3ccccc23)NC(=O)[C@@H]2C[C@@H](N)CN2C(=O)[C@H]2CCCN2C1=O [compound 45] (cyclo(R[dP][Pro(4R-NH2)]W[dF]W))
[2] CC[C@H](C)[C@@H]1NC(=O)[C@H]([C@@H](C)O)NC(=O)[C@H]2CCCN2C(=O)[C@H](Cc2c[nH]c3ccccc23)NC(=O)[C@H](CCCNCc2nccn2C)NC(=O)[C@@H](CCCNC(=N)N)NC1=O [Ex. 69] (cyclo(I[dR][X4]W[dP]T))
Pick one: 1 or 2 . Which has the bigger EC50 number? Please reply using the label of the selected record.
2

Source: patent US9637520B2
